# assay.method.text: passive permeability, PAMPA, ADME assay (AID 1508612)
# cond: pH 7.4, 30.0 min, 50.0 µM
Flag rule - Papp less than 40 ×10⁻⁶ cm/s flags criterion met; the remaining entries get criterion not met.

# compound, category.label
measured = [
    ("CCN1CCN(C(=O)c2cc(-c3ccc(F)cc3)c3nncn3n2)CC1", "criterion not met"),
    ("O=C1CCCC2=C1C(c1[nH]ncc1Cl)N=C(Nc1nc3cc([S+](=O)([O-])N4CCCC4)ccc3o1)N2 (stereo unspecified)", "criterion not met"),
    ("NS(=O)(=O)c1ccc(Cc2c(-c3cccc(-c4ccccc4)c3)nn(-c3nc(C(=O)O)cs3)c2CC2CC2)cc1", "criterion met"),
    ("O=S(=O)(Nc1cccc2ccncc12)c1ccc(NCc2cccc(Cl)c2O)cc1", "criterion not met"),
    ("Cc1cnc(-c2ccccc2C2CC2)nc1NCc1ccc(-c2cccnc2)cc1", "criterion not met"),
    ("CCOC(=O)C1CCN(c2nc(-c3ccc(Br)cc3)cs2)CC1", "criterion not met"),
    ("CCOc1ccc(CCNC(=O)c2cc3sccc3n2C(C)C)cc1OCC", "criterion not met"),
    ("CC(=O)Nc1ncc(S(=O)(=O)Nc2cnccc2C(=O)Nc2nc(-c3ccccc3)cs2)s1", "criterion met"),
    ("CN(C)[C@@H]1CCN(c2cccc(Nc3nn4c(=O)c5ccccc5nc4s3)c2)C1", "criterion not met"),
    ("COc1ccc(S(=O)(=O)N(CC(=O)Nc2ccc(C)cc2)c2ccc(C)cc2)cc1OC", "criterion not met"),
    ("CC(=O)c1ccc(N2CCN(S(=O)(=O)c3ccc4[nH]c(=O)[nH]c4c3)CC2)cc1", "criterion met"),
    ("CC(NCc1ccc2c(c1)nc(NC(=O)c1ccc(-c3cn[nH]c3)s1)n2CC(C)(C)O)C(C)(C)C (stereo unspecified)", "criterion not met"),
    ("NC(=O)NCC(=O)N[C@H]1CC[C@H](Nc2nccc(-c3ccncc3)n2)C1", "criterion met"),
    ("Cc1ccc(-c2cc(C(=O)Nc3ccc(S(=O)(=O)Nc4ccc(C#N)cc4)cc3)c3ccccc3n2)cc1C", "criterion met"),
    ("N[C@@H](Cc1cc(Br)c(O)c(Br)c1)C(=O)O", "criterion met"),
    ("CCOc1ccc(CCNC(=O)c2cc3sccc3n2Cc2ccccn2)cc1OCC", "criterion not met"),
    ("c1cc(-c2cc(-c3ccncc3)c3cncn3c2)c2[nH]ncc2c1", "criterion met"),
    ("COc1cccc(C(=O)Nc2nnc(S(=O)(=O)N3CCOCC3)s2)c1", "criterion met"),
    ("CCc1c(C)nc2c(-c3cnn(-c4cc(CO)ccn4)c3)c[nH]n2c1=O", "criterion met"),
    ("COc1ccc(S(=O)(=O)N(C(=O)C(C)C)c2ccc3oc(=O)sc3c2)cc1", "criterion not met"),
    ("O=C1Nc2ccccc2/C1=C\\c1cc(Br)c(O)c(Br)c1", "criterion not met"),
    ("Cc1nc(-c2ccco2)cc([C@H]2CN3CC[C@H]2C[C@@H]3CNC(=O)NC2CCCCC2)n1", "criterion not met"),
    ("N#Cc1ccc(-c2csc(N3CCC(C(N)=O)CC3)n2)cc1", "criterion not met"),
    ("Cc1cnc(-c2ccccc2C(C)C)nc1NCC1CCN(C2COC2)CC1", "criterion not met"),
    ("O=C(O)c1cccc(-n2cccc2/C=C2/NC(=O)N(c3cccc(Cl)c3)C2=O)c1", "criterion met"),
    ("COc1ccc2c3c([nH]c2c1)C1CC2C(CC(O)C(OC)C2CO)CN1CC3 (stereo unspecified)", "criterion met"),
    ("COc1ccnc(NC(=S)N2CCN(c3cccc(C(F)(F)F)c3)CC2)c1", "criterion not met"),
    ("CC(=O)c1c(C)[nH]c(C(=O)Nc2cccc([S+](=O)([O-])Nc3c(C)cccc3C)c2)c1C", "criterion not met"),
    ("COC(=O)CNC(=O)c1nc(-c2ccc([S+](C)(=O)[O-])cc2)c2cnccn12", "criterion met"),
    ("NC(=O)C1CCN(c2ncnc(-c3ccc4c(c3)OCCCO4)n2)CC1", "criterion not met"),
    ("CC1=C(C(=O)Nc2nncs2)C(c2[nH]ncc2Cl)N=C(Nc2nc3ccccc3o2)N1 (stereo unspecified)", "criterion met"),
    ("NC(=O)N1CCCC(C(=O)N2CCCN(c3ccc(F)cc3)CC2)C1 (stereo unspecified)", "criterion not met"),
    ("c1coc(-c2nc3ccncc3[nH]2)c1", "criterion met"),
    ("CS(=O)(=O)c1ccc(-c2csc(N3CCC(C(N)=O)CC3)n2)cc1", "criterion not met"),
    ("Cc1ccc(S(=O)(=O)Nc2cnccc2C(=O)Nc2nc(-c3ccc(Cl)cc3)cs2)cc1", "criterion met"),
    ("CCc1cccc(NC(=O)c2c(C)oc3nc(C)nc(N4CCCC4)c23)c1", "criterion not met"),
    ("O=C(CCc1ccccc1)Nc1ccc(S(=O)(=O)Nc2nccs2)cc1", "criterion met"),
    ("NC(=O)C1CCN(c2nc(-c3cccc(C(F)(F)F)c3)cs2)CC1", "criterion not met"),
    ("O=C(O)Cc1ccc2oc(-c3ccc(NC(=O)/C=C/c4ccc(Br)cc4)c(F)c3)nc2c1", "criterion met"),
    ("Cc1cccc(-c2noc([C@@H]3Cc4nc[nH]c4CN3C(=O)CC(C)(C)CC(=O)O)n2)c1", "criterion met"),
]
